tested system: Sodium channel protein type 9 subunit alpha (Homo sapiens, UniProt Q15858)
Sequence (Q15858 whole entry): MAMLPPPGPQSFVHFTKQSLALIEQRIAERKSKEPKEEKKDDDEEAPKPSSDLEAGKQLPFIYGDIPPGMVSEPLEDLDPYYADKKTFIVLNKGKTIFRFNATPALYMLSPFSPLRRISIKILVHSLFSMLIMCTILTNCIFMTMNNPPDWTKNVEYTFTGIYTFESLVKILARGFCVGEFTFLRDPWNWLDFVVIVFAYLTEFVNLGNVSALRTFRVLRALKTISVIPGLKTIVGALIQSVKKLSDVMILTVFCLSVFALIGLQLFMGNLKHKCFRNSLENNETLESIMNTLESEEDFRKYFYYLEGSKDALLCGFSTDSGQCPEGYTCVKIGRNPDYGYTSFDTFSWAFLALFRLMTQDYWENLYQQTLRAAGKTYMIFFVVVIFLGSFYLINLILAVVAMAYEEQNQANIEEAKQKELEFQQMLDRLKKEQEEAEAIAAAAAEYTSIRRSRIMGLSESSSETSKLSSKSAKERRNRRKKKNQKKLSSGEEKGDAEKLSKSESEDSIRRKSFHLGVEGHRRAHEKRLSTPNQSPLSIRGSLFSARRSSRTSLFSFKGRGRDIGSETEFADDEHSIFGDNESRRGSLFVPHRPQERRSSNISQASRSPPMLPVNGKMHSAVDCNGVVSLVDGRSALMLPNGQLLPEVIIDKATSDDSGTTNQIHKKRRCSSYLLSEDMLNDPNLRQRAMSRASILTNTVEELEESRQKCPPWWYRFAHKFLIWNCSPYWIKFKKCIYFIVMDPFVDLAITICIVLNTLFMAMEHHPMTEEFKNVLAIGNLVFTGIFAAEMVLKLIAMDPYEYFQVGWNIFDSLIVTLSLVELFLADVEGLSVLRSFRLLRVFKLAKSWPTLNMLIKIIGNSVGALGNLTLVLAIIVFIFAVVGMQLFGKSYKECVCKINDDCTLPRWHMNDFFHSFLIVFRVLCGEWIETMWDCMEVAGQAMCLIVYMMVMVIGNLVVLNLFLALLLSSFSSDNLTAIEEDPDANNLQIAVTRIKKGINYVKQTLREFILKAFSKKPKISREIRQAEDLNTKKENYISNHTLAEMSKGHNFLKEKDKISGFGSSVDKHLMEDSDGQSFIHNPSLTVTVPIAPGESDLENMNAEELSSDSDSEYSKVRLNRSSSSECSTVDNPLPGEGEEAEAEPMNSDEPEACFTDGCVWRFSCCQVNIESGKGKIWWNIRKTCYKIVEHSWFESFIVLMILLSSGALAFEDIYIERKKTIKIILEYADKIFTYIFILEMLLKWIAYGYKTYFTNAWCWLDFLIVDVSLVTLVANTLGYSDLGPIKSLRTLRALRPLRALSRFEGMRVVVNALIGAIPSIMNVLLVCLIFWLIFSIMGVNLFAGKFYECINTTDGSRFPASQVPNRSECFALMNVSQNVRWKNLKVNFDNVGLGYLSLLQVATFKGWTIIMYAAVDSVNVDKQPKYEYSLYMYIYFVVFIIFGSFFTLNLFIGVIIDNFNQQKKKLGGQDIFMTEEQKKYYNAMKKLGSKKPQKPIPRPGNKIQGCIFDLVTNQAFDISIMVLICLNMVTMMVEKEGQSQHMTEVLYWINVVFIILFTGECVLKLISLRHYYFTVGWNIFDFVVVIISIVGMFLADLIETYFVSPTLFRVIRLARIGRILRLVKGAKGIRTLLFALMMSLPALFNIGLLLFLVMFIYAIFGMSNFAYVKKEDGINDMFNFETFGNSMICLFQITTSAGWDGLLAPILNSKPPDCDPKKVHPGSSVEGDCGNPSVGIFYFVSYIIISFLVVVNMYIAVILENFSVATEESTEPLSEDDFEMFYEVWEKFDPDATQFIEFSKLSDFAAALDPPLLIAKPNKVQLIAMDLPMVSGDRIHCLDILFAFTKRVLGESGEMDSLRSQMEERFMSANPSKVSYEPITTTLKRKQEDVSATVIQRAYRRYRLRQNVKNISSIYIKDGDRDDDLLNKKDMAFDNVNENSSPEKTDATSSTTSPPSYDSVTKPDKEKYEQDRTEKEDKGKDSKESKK
procedure text: Inhibition of human Nav1.7 assessed as inactivated-state block by patch-clamp electrophysiology/cell based assay
pIC50: −log10 of the molar value.

- smiles data: "O=C(NCc1noc(-c2c3ccccc3nn2CCn2ccnc2)n1)c1cccc(OC(F)(F)F)c1"
  pIC50: 5.52

* * *

tested system: Sodium channel protein type 10 subunit alpha (Homo sapiens, UniProt Q9Y5Y9)
procedure text: Inhibition of human Nav1.8 assessed as tonic block using double pulse protocol by patch-clamp electrophysiology/cell based assay
property label: IC50 (µM)

- smiles data: "O=C(NCc1noc(-c2c3ccccc3nn2CCn2ccnc2)n1)c1cccc(OC(F)(F)F)c1"
  endpoint result: 6.34

* * *

procedure text: Displacement of [3H]sipatrigine from Wistar rat brain synaptosomes voltage-gated sodium channel by liquid scintillation counting
Format: subcellular

- smiles data: "O=C(NCc1noc(-c2c3ccccc3nn2CCn2ccnc2)n1)c1ccc2ccccc2c1"
  IC50: "0.4 µM"
- smiles data: "O=S(=O)(NCc1noc(-c2nn(CCn3ccnc3)c3ccccc23)n1)c1cccc(C(F)(F)F)c1"
  IC50: "2.1 µM"
- smiles data: "O=C(NCc1noc(-c2c3ccccc3nn2CCn2ccnc2)n1)c1ccc(Cl)cc1"
  IC50: "2.2 µM"
- smiles data: "Cc1oncc1Cn1nc(-c2nc(CN)no2)c2ccccc21"
  IC50: "15 µM"
- smiles data: "COc1cccc(C(=O)NCc2noc(-c3nn(CCn4ccnc4)c4ccccc34)n2)c1OC"
  IC50: "7.1 µM"
- smiles data: "O=C(NCc1noc(-c2c3ccccc3nn2Cc2ccccn2)n1)c1ccccc1"
  IC50: "41 µM"
- smiles data: "Cc1oncc1Cn1nc(-c2nc(CNC(=O)OC(C)(C)C)no2)c2ccccc21"
  IC50: "339 µM"
- smiles data: "O=C(NCc1noc(-c2c3ccccc3nn2CCn2ccnc2)n1)c1ccc(OC(F)(F)F)cc1"
  IC50: "0.7 µM"
- smiles data: "CC(C)(C)OC(=O)NCc1noc(-c2c3ccccc3nn2Cc2ccccn2)n1"
  IC50: "23 µM"
- smiles data: "CC(C)(C)OC(=O)NCc1noc(-c2c3ccccc3nn2CCn2ccnc2)n1"
  IC50: "15.5 µM"
- smiles data: "COc1ccccc1C(=O)NCc1noc(-c2c3ccccc3nn2CCn2ccnc2)n1"
  IC50: "7.1 µM"
- smiles data: "CC(C)(C)c1ccc(C(=O)NCc2noc(-c3nn(CCn4ccnc4)c4ccccc34)n2)cc1"
  IC50: "1.2 µM"
- smiles data: "O=S(=O)(NCc1noc(-c2nn(CCn3ccnc3)c3ccccc23)n1)c1ccc(Cl)cc1"
  IC50: "10 µM"
- smiles data: "O=S(=O)(NCc1noc(-c2nn(CCn3ccnc3)c3ccccc23)n1)c1ccc(OC(F)(F)F)cc1"
  IC50: "4.9 µM"
- smiles data: "CC(C)(C)OC(=O)NCc1noc(-c2nn(-c3ccccn3)c3ccccc23)n1"
  IC50: "74 µM"
- smiles data: "O=C(NCc1noc(-c2c3ccccc3nn2CCc2cccs2)n1)c1ccccc1"
  IC50: "> 1000 µM"

* * *

Measured pIC50 by item
tested system: Sodium channel protein type 5 subunit alpha (Homo sapiens, UniProt Q14524)
procedure text: Inhibition of human Nav1.5 assessed as inactivated-state block by patch-clamp electrophysiology/cell based assay
pIC50: −log10 of the molar value.
property label: pIC50

- smiles data: "O=C(NCc1noc(-c2nn(CCn3ccnc3)c3ccccc23)n1)c1ccccc1"
  property label: "pIC50"
  endpoint result: 4.72
- smiles data: "O=C(NCc1noc(-c2c3ccccc3nn2CCn2ccnc2)n1)c1cccc(OC(F)(F)F)c1"
  property label: "pIC50"
  endpoint result: 6.04

* * *

procedure text: Displacement of [3H]sipatrigine from Wistar rat brain synaptosomes voltage-gated sodium channel by liquid scintillation counting
Type: subcellular

- smiles data: "NCc1noc(-c2nn(-c3ccccn3)c3ccccc23)n1"
  relation qualifier: "="
  IC50, µM: 32
- smiles data: "Cc1oncc1Cn1nc(-c2nc(CNC(=O)c3ccccc3)no2)c2ccccc21"
  relation qualifier: ">"
  IC50, µM: 2000
- smiles data: "COc1cccc(S(=O)(=O)NCc2noc(-c3nn(CCn4ccnc4)c4ccccc34)n2)c1OC"
  relation qualifier: ">"
  IC50, µM: 500
- smiles data: "NCc1noc(-c2nn(Cc3ccc4c(c3)OCO4)c3ccccc23)n1"
  relation qualifier: "="
  IC50, µM: 2.1
- smiles data: "Cc1cccc(C(=O)NCc2noc(-c3c4ccccc4nn3CCn3ccnc3)n2)c1"
  relation qualifier: "="
  IC50, µM: 2.5
- smiles data: "CC(=O)Nc1ccc(S(=O)(=O)NCc2noc(-c3c4ccccc4nn3CCn3ccnc3)n2)cc1"
  relation qualifier: "="
  IC50, µM: 17
- smiles data: "CC(C)(C)c1ccc(S(=O)(=O)NCc2noc(-c3nn(CCn4ccnc4)c4ccccc34)n2)cc1"
  relation qualifier: "="
  IC50, µM: 4.4
- smiles data: "NCc1noc(-c2nn(CCn3ccnc3)c3ccccc23)n1"
  relation qualifier: "="
  IC50, µM: 148
- smiles data: "NCc1noc(-c2nn(Cc3ccc(-n4cccn4)cc3)c3ccccc23)n1"
  relation qualifier: "="
  IC50, µM: 6.2
- smiles data: "CC(C)(C)OC(=O)NCc1noc(-c2c3ccccc3nn2CCc2cccs2)n1"
  relation qualifier: "="
  IC50, µM: 166

* * *

Property: pIC50; scope: individual compounds
tested system: Sodium channel protein type 8 subunit alpha (Homo sapiens, UniProt Q9UQD0)
procedure text: Inhibition of human Nav1.6 assessed as 10 Hz block by patch-clamp electrophysiology/cell based assay
pIC50: −log10 of the molar value.

- smiles data: "O=C(NCc1noc(-c2nn(CCn3ccnc3)c3ccccc23)n1)c1ccccc1"
  relation qualifier: "<"
  pIC50: 4.00
- smiles data: "O=C(NCc1noc(-c2c3ccccc3nn2CCn2ccnc2)n1)c1cccc(OC(F)(F)F)c1"
  relation qualifier: "="
  pIC50: 4.49

* * *

tested system: Sodium channel protein type 1 subunit alpha (Homo sapiens, UniProt P35498)
procedure text: Inhibition of human Nav1.1 assessed as inactivated-state block using double pulse protocol by patch-clamp electrophysiology/cell based assay
pIC50: −log10 of the molar value.

- smiles data: "O=C(NCc1noc(-c2nn(CCn3ccnc3)c3ccccc23)n1)c1ccccc1"
  pIC50: 4.68
- smiles data: "O=C(NCc1noc(-c2c3ccccc3nn2CCn2ccnc2)n1)c1cccc(OC(F)(F)F)c1"
  pIC50: 5.59

* * *

tested system: Sodium channel protein type 2 subunit alpha (Homo sapiens)
procedure text: Inhibition of human Nav1.2 assessed as tonic block by patch-clamp electrophysiology/cell based assay

- smiles data: "O=C(NCc1noc(-c2c3ccccc3nn2CCn2ccnc2)n1)c1cccc(OC(F)(F)F)c1"
  tested system: "Sodium channel protein type 2 subunit alpha (Homo sapiens)"
  IC50: "65 µM"

* * *

tested system: Sodium channel protein type 4 subunit alpha (Homo sapiens, UniProt P35499)
procedure text: Inhibition of human Nav1.4 assessed as inactivated-state block by patch-clamp electrophysiology/cell based assay
pIC50: −log10 of the molar value.
Below is a list of entries, each paired with its recorded pIC50 value.

- smiles data: "O=C(NCc1noc(-c2nn(CCn3ccnc3)c3ccccc23)n1)c1ccccc1"
  pIC50: 4.62
- smiles data: "O=C(NCc1noc(-c2c3ccccc3nn2CCn2ccnc2)n1)c1cccc(OC(F)(F)F)c1"
  pIC50: 5.34

* * *

The reader will find reported IC50 values listed item by item below.
tested system: Sodium channel protein type 3 subunit alpha (Homo sapiens, UniProt Q9NY46)
Sequence (Q9NY46 whole entry): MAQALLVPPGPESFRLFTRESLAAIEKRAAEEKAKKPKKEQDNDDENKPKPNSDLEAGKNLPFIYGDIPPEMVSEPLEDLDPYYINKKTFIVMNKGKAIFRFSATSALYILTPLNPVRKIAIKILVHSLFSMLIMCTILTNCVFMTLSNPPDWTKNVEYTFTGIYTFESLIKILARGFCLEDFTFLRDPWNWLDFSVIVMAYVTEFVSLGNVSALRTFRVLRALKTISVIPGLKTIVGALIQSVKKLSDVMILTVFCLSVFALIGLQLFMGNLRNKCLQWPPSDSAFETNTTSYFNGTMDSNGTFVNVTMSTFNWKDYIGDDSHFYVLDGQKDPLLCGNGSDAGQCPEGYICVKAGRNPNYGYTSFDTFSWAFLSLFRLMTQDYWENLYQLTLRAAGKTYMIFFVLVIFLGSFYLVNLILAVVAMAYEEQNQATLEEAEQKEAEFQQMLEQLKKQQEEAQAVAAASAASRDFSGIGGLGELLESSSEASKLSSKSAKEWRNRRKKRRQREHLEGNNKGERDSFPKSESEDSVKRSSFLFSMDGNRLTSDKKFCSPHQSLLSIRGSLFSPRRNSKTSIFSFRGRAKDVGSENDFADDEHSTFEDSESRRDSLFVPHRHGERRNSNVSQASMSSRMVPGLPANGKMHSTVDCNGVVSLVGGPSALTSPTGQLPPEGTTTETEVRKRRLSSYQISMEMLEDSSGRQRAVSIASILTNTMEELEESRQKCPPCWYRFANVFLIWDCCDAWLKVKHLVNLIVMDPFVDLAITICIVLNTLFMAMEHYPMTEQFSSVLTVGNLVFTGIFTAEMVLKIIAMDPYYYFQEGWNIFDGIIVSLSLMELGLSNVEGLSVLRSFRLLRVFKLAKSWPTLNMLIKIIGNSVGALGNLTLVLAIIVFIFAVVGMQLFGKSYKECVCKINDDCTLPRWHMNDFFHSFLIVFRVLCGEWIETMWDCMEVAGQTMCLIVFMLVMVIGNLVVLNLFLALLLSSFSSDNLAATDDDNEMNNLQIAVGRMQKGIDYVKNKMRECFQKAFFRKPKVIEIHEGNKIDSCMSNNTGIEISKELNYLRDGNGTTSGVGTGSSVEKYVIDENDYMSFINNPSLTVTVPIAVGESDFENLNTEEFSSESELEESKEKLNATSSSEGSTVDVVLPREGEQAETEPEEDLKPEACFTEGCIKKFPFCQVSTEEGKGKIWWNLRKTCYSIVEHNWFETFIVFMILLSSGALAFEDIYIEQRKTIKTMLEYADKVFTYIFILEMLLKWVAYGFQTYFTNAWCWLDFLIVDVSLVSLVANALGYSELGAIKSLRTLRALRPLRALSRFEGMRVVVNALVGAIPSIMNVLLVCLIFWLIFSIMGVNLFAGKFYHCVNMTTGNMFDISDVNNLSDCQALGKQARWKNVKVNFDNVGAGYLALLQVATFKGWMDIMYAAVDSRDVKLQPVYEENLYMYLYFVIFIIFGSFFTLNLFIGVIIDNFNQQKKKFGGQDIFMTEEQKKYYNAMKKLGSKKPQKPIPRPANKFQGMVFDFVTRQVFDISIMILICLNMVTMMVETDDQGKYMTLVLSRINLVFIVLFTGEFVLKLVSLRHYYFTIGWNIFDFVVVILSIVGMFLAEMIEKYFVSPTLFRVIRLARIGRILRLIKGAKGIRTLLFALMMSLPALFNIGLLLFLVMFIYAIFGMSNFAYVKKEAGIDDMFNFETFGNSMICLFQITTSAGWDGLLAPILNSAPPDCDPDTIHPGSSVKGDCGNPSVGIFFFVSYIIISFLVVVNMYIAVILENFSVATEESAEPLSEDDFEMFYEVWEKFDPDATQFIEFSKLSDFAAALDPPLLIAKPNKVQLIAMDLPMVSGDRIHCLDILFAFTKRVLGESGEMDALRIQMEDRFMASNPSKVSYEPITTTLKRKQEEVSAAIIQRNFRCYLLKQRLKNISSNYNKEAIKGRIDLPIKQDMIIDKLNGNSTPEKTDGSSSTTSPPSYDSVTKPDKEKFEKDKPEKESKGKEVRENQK
procedure text: Inhibition of human Nav1.3 assessed as tonic block by patch-clamp electrophysiology/cell based assay
property label: IC50

- smiles data: "O=C(NCc1noc(-c2nn(CCn3ccnc3)c3ccccc23)n1)c1ccccc1"
  property label: "IC50"
  endpoint result: "> 100 µM"
- smiles data: "O=C(NCc1noc(-c2c3ccccc3nn2CCn2ccnc2)n1)c1cccc(OC(F)(F)F)c1"
  property label: "IC50"
  endpoint result: "> 100 µM"

* * *

Reported IC50 values are given for each entry in this list.
tested system: Sodium channel protein type 3 subunit alpha (Homo sapiens)
procedure text: Inhibition of human Nav1.3 assessed as 10 Hz block by patch-clamp electrophysiology/cell based assay

- smiles data: "O=C(NCc1noc(-c2c3ccccc3nn2CCn2ccnc2)n1)c1cccc(OC(F)(F)F)c1"
  IC50: "97 µM"
- smiles data: "O=C(NCc1noc(-c2nn(CCn3ccnc3)c3ccccc23)n1)c1ccccc1"
  IC50: "> 100 µM"

* * *

procedure text: Metabolic stability in rat liver microsomes assessed as drug turnover at 1 uM at 40 mins by LC-MS/MS analysis
Assay type: ADME
protocol conditions: read-out: Drug metabolism
property label: metabolised at 40 min, 1 µM (%)

- smiles data: "CC(C)(C)OC(=O)NCc1noc(-c2c3ccccc3nn2CCn2ccnc2)n1"
  endpoint result: 70
- smiles data: "CC(=O)Nc1ccc(S(=O)(=O)NCc2noc(-c3c4ccccc4nn3CCn3ccnc3)n2)cc1"
  endpoint result: 54
- smiles data: "NCc1noc(-c2c3ccccc3nn2CCn2ccnc2)n1"
  endpoint result: 57
- smiles data: "O=C(NCc1noc(-c2nn(CCn3ccnc3)c3ccccc23)n1)c1cccc(OC(F)(F)F)c1"
  endpoint result: 78
- smiles data: "CC(=O)Nc1ccc(C(=O)NCc2noc(-c3c4ccccc4nn3CCn3ccnc3)n2)cc1"
  endpoint result: 45
- smiles data: "O=S(=O)(NCc1noc(-c2c3ccccc3nn2CCn2ccnc2)n1)c1ccccc1"
  endpoint result: 97
- smiles data: "O=C(NCc1noc(-c2nn(CCn3ccnc3)c3ccccc23)n1)c1ccccc1"
  endpoint result: 47

The reported numbers originate from ChEMBL document CHEMBL3232919.
